system: KM12; experiment: NCI tumour cell line growth inhibition, 48 h
Active and inactive are the calls of the source. No stated cut-off is given here; in the data, active = GI50 up to about 1.1 µM and inactive = higher.
Give measured GI50 for each item. Keep answers brief.

Query: # return recorded GI50 for entry C=C(C(=O)OC)[C@H]1CC/C(C)=C/CC/C(C)=C/CC[C@@]2(C)O[C@@H]2C1
Result: 16.5 µM (inactive)

Query: # return recorded GI50 for entry CC1CSc2nc3nc(S)nc-3c(O)n2C1 (configuration not stated)
Result: > 100 µM (inactive)

Query: # return recorded GI50 for entry N#CC12CCC1C1CCCCC12N1CCSCC1 (configuration not stated)
Result: 92.3 µM (inactive)

Query: # return recorded GI50 for entry CCCN1C(=O)C/C(=C\C(C)=O)Nc2ccccc21
Result: > 100 µM (inactive)

Please look at the items below and tell me GI50 for each one, in order.
1. O=C1/C(=N\O)S(=O)(=O)c2ccccc21
2. CN1CCCCC(C#N)(c2ccccc2)CC1 (configuration not stated)
3. N#CCN1c2ccccc2CCC1Cl (configuration not stated)
4. CCOc1cc2c(cc1O)/C(=N/NS(=O)(=O)c1ccc(C)cc1)C[C@@H]1[C@@H]2CC[C@]2(C)[C@@H](O)CC[C@@H]12
5. CC(C)(C)OC(=O)N1C(OP(=O)(Oc2ccccc2)Oc2ccccc2)=COc2cccnc21
6. COc1ccc(C(=O)CC(c2ccccc2)[C@H]2C(c3ccc(OC)cc3)=Nc3c(nc(SC)n(C)c3=O)NC2c2ccccc2)cc1 (some centres not stated)
7. Cc1cc(=O)cc2sc3cc(Cl)ccc3nc1-2

Result:
1: > 100 µM (inactive); 2: > 100 µM (inactive); 3: > 10 µM (inactive); 4: 4.22 µM (inactive); 5: 31.4 µM (inactive); 6: > 100 µM (inactive); 7: 4.5 µM (inactive)

Query: # return recorded GI50 for entry C#Cc1cccc(N2C(=O)c3c(c(-c4ccccc4)c(-c4ccc(Cc5ccc(-c6c(-c7ccccc7)c7c(c(-c8ccccc8)c6-c6ccccc6)C(=O)N(c6cccc(C#C)c6)C7=O)cc5)cc4)c(-c4ccccc4)c3-c3ccccc3)C2=O)c1
Result: 25.6 µM (inactive)

###

system: SW-620; experiment: NCI tumour cell line growth inhibition, 48 h
Calls of active or inactive are those of the source. No stated cut-off is given here; in the data, active = GI50 up to about 1.1 µM and inactive = higher.
reported.metric: GI50

The cases that follow already have their GI50 on record.
Query: Under SW-620, report GI50 for C=C1C(C2(C)C=CC(=O)OC3(C)COC(=O)CC32)C(OC=O)C(OC(=O)C(O)C(C)CC)C2(C)C(c3ccoc3)CC(OC(C)=O)C12O (centres undefined)
Result: > 100 µM (inactive)

Query: Under SW-620, report GI50 for Cc1cc2c([nH]c3ccccc32)c2c1OC(C)(C)C1C3CC(C)(C)Oc4c(C)cc5c6ccccc6n(c5c43)C21 (centres undefined)
Result: > 100 µM (inactive)

Query: Under SW-620, report GI50 for CC1(C)CCC[C@]2(C)[C@@H]1CC[C@@]13O[C@@H]1C1=C(CO)C(=O)O[C@]14O[C@@H]4[C@@H]23
Result: 12.8 µM (inactive)

Please look at the items below and tell me GI50 for each one, in order.
1. Brc1ccc(CCNCCN2CCCCC2)cc1
2. COc1cc(/C=C2\N=C(c3ccccc3)N(c3nc4ccc(Sc5ccccc5)cc4[nH]3)C2=O)cc(OC)c1OC
3. O=c1c2c(no[n+]2[O-])c2ccccc2n1-c1ccccc1
4. COC(=O)/N=[N+](\[O-])C(c1ccc(OC)cc1)C1CCCCC1 (centres undefined)
5. CNC(=O)ON(C(C)=O)C(=O)NC [CARACEMIDE]

Result:
1. 17 µM (inactive)
2. 25 µM (inactive)
3. 2.65 µM (inactive)
4. 3.4 µM (inactive)
5. 52 µM (inactive)

Please look at the items below and tell me GI50 for each one, in order.
1. Cn1c(CC(O)c2nc3ccccc3n2C)nc2ccccc21 (centres undefined)
2. N/C(=N\c1ccc(Cl)c(Cl)c1)c1ccccc1N

Result:
1: > 16 µM (inactive); 2: 63.8 µM (inactive)

Please look at the items below and tell me GI50 for each one, in order.
1. O=C1/C(=C\c2cccs2)Oc2ccccc21
2. O=[N+]([O-])c1ccc(Oc2c(Cl)cc(S(=O)(=O)N/C(=N\O)Nc3ccc(Cl)cc3)cc2Cl)c(Cl)c1
3. CCCCCCCCCC[C@H](O)[C@H]1CC[C@H]([C@H]2CC[C@H]([C@H](O)CC[C@H](O)CCCCCCC[C@@H](O)CC3=C[C@H](C)OC3=O)O2)O1
4. CSc1ncnc2c1ncn2CCC(=O)OC(C)(C)C
5. CCOC(=O)/C(=C\c1ccc(N(CCC#N)CCC#N)cc1)NC(=O)c1cc([N+](=O)[O-])ccc1Cl
6. COc1ccc(-c2c(C(C)=O)c(C)n(C3OC(COC(C)=O)C(OC(C)=O)C(OC(C)=O)C3OC(C)=O)c(=S)c2C#N)cc1 (centres undefined)

Result:
["> 100 µM (inactive)", "24.9 µM (inactive)", "> 10 µM (inactive)", "> 100 µM (inactive)", "> 100 µM (inactive)", "72.8 µM (inactive)"]

Please look at the items below and tell me GI50 for each one, in order.
1. CC1(C)c2ccccc2C(O)C12CCC(=O)CC2 (centres undefined)
2. Cn1cnc2c(sc3nc4ccccc4n32)c1=N
3. COC(=O)C(/C(=N/NC(=O)c1ccncc1)C(=O)Nc1ccccc1OC)c1nc2ccc(Cl)cc2nc1O (centres undefined)

Result:
1: > 100 µM (inactive); 2: > 100 µM (inactive); 3: > 100 µM (inactive)

###

system: MCF7; assay: NCI tumour cell line growth inhibition, 48 h
Activity calls are given as the source filed them. Rule as the data show it: active = GI50 up to about 1.1 µM and inactive = higher.
reported.metric: GI50

The cases that follow already have their GI50 on record.
Query: Under MCF7, report GI50 for COC(=O)C(/C(=N/NC(=O)c1ccncc1)C(=O)Nc1ccccc1OC)c1nc2ccc(Cl)cc2nc1O (stereo unspecified)
Result: > 100 µM (inactive)

Query: Under MCF7, report GI50 for O=c1c(-c2ccc(Cl)cc2)nnc2n(Cc3ccccc3)c3ccccc3n12
Result: 60.7 µM (inactive)

Query: Under MCF7, report GI50 for COc1cc(Nc2nc3ccccc3nc2C(C)C)cc(OC)c1OC
Result: > 100 µM (inactive)

Please look at the items below and tell me GI50 for each one, in order.
1. CC1CC(N)=C(C#N)C1(C#N)C#N (stereo unspecified)
2. COC(=O)/C=C\C(C#N)(C#N)/N=C/c1ccc(Br)cc1
3. CN1CCCCC(C#N)(c2ccccc2)CC1 (stereo unspecified)
4. O=C1C=CC(=O)c2c1ccc1c3ccccc3n(Cc3cccc([N+](=O)[O-])c3)c21
5. COc1cc(/C=C2\C[C@H]3[C@@H]4CC=C5C[C@@H](N6CCCC6)CC[C@]5(C)[C@H]4CC[C@]3(C)[C@H]2O)cc(OC)c1OC

Result:
1: > 100 µM (inactive); 2: 3.52 µM (inactive); 3: > 100 µM (inactive); 4: 22.3 µM (inactive); 5: 8.71 µM (inactive)

###

system: UACC-257; test: NCI tumour cell line growth inhibition, 48 h
Active and inactive are the calls of the source. No stated cut-off is given here; in the data, active = GI50 up to about 1.1 µM and inactive = higher.
reported.metric: GI50

The cases that follow already have their GI50 on record.
Query: # return recorded GI50 for entry COc1cccc(N2C(=O)C3c4[nH]c5ccccc5c4C4CCCC4C3C2=O)c1 (stereo unspecified)
Result: > 10 µM (inactive)

Query: # return recorded GI50 for entry Cc1cn(CC2=NCC(C)(C)CN2)c(=O)[nH]c1=O
Result: > 100 µM (inactive)

Query: # return recorded GI50 for entry Cc1ccc(NC(=O)CC2C(=O)Nc3ccccc3[S+]2[O-])c(C)c1 (stereo unspecified)
Result: 50.8 µM (inactive)

Please look at the items below and tell me GI50 for each one, in order.
1. CN1Cc2c(ccc3c2OCO3)[C@@H]2[C@H](O)Cc3cc4c(cc3[C@@H]21)OCO4
2. COc1ccc2c(ccc3c(C(=O)NCCCN(C)CCCNC(=O)c4cn(C)c5c4ccc4cc(OC)ccc45)cn(C)c32)c1
3. S=C(N/N=C/c1ccco1)NC12CC3CC(CC(C3)C1)C2

Result:
1. 5.26 µM (inactive)
2. 1.57 µM (inactive)
3. 32.2 µM (inactive)

###

test system: SNB-19; test: NCI tumour cell line growth inhibition, 48 h
Calls of active or inactive are those of the source. No stated cut-off is given here; in the data, active = GI50 up to about 1.1 µM and inactive = higher.
The reply should name one outcome from active, inactive

Before answering, review these 2 worked examples.
Query: For O=c1[nH]c2ccc(C(F)(F)F)cc2nc1Cc1ccccc1 , which call appears in the assay record?
Result: inactive

Query: For CN1CCCCC(C#N)(c2ccccc2)CC1 (configuration not stated) , which call appears in the assay record?
Result: inactive

Further cases:
Query: For C[C@@H]1CC[C@H]2[C@H]1[C@H]1[C@@H](CC[C@]2(C)N=C=S)C1(C)C , which call appears in the assay record?
Result: inactive

Query: For Cn1c(=O)c(-c2ccccc2)c(N=[N+]=[N-])c2ccccc21 , which call appears in the assay record?
Result: inactive

Query: For COc1ccc2c(ccc3c(C(=O)NCCCN(C)CCCNC(=O)c4cn(C)c5c4ccc4cc(OC)ccc45)cn(C)c32)c1 , which call appears in the assay record?
Result: inactive

Query: For COc1cc2c(cc1O)CCN[C@@]21CS[C@H]2c3c(OC(C)=O)c(C)c4c(c3C(COC1=O)N1C2C2NC(Cc3cc(C)c(OC)c(O)c32)[C@@H]1O)OCO4 (some centres not stated) , which call appears in the assay record?
Result: active

Query: For Cn1c(=O)nc2n(-c3ccc(Cl)cc3)c(-c3ccccc3)c(-c3ccccc3)nc-2c1=O , which call appears in the assay record?
Result: inactive

Query: For O=c1c2c(no[n+]2[O-])c2ccccc2n1-c1ccccc1 , which call appears in the assay record?
Result: inactive

Query: For COc1ccc(C2C3=C(COC3=O)OC(C)(C)Oc3cc4c(cc32)OCO4)cc1 (configuration not stated) , which call appears in the assay record?
Result: inactive

Query: For CCOC(=O)C1C(c2ccc([N+](=O)[O-])cc2)NC(c2ccc([N+](=O)[O-])cc2)C(C(=O)OC)S1(=O)=O (configuration not stated) , which call appears in the assay record?
Result: inactive

Query: For CC(C)CC(NC=O)C(=O)NC(Cc1ccccc1)NC(=O)CNC(=O)C(C)NC(=O)C(N)Cc1ccc(O)cc1 (configuration not stated) , which call appears in the assay record?
Result: inactive

Query: For CC(C)C/C(CC(=O)CCC(=O)Nc1ccccc1[N+](=O)[O-])=N\NC(=O)c1cc2ccccc2cc1O , which call appears in the assay record?
Result: inactive

Query: For CC(C)(C)c1cc2c(OC/C=C/c3ccccc3)c(c1)Cc1cc(C(C#N)(OC/C=C/c3ccccc3)OC/C=C/c3ccccc3)cc(c1OC/C=C\c1ccccc1)Cc1cc(C(C)(C)C)cc(c1OC/C=C/c1ccccc1)Cc1cc(C(C#N)(OC/C=C\c3ccccc3)OC/C=C/c3ccccc3)cc(c1OC/C=C\c1ccccc1)C2 (configuration not stated) , which call appears in the assay record?
Result: inactive
